target desc: aggregated amyloid peptide Aβ1-40 (Homo sapiens)
Sequence (P05067 672-711 limits assumed): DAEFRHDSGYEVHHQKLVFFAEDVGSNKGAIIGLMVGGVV
assay: In vitro Aβ1-40 binding affinity by fluorescence titration
details: ratio of Kd vs compound 4
fold weaker Aβ binding affinity compared to 4 for assorted compounds

Worked cases, answers included:
Oc1ccc(/C=C/c2ccc(/C=C/c3ccc(O)c(O)c3)cc2)cc1 | 17 to 27 fold
Oc1cc(O)cc(/C=C/c2ccc(/C=C/c3cc(O)cc(O)c3)cc2)c1 | 17 to 27 fold

Data request: Report fold weaker Aβ binding affinity compared to 4 from aggregated amyloid peptide Aβ1-40 (Homo sapiens) testing of Oc1ccc(/C=C/c2ccc(/C=C/c3cc(O)cc(O)c3)cc2)cc1
Data returned: 17 to 27 fold
